Origin of the recorded values: the supplement of paper PMC6757056

B1: library; a variant is named by its letters at N, in order (parent)
chain: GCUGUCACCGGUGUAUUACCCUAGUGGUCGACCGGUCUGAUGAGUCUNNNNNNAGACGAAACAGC

- Variants of: B1
- experimentNotes: normalized RNA/DNA level with ligand (relative to sTRSVctl = 100) (log10 (% of sTRSVctl)); ligand: hypoxanthine (xanthine aptamer); higher = less ribozyme self-cleavage, higher mRNA level
- conditionSummary: ligand concentration (+) RNA-Seq: 5 mM, HEK293T, reporter: mCherry (pCS4076), ligand present: yes
Overview of reported normalized RNA/DNA level with ligand (log10) across a group of variants:

Example entries begin here.
AAAAAC; 1.89
GUAAUC; 1.95
AUGGUU; 1.89
GCCGUC; 1.94
GAACAA; 1.91
AACAUG; 1.86
GUGAUG; 1.81
CUCACU; 1.99
CCCACG; 1.92
GAGGCC; 2.03

Input: What value of measured normalized RNA/DNA level with ligand (log10) is listed for `AUCACA` ?
Output: 1.91
